Target: human CXCR3A (Homo sapiens (Human), UniProt P49682)
Sequence (P49682 whole entry): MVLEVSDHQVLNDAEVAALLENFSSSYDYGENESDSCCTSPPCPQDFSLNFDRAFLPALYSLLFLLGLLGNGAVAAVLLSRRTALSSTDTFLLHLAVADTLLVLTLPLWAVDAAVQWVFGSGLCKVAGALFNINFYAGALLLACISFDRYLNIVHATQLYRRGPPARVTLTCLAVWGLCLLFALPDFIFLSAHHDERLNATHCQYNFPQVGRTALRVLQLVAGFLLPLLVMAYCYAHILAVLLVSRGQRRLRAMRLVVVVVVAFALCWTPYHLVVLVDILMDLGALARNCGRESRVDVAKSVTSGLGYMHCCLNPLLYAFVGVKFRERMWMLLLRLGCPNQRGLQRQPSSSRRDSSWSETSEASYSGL
Assay: FLIPR assay
Conditions: CHO-K1 cells expressing the human CXCR3A coupled to Galpha(16); CXCL10 agonist 20 nM; Fluo-4-AM fluorescence; mean values if determined several times
recorded-endpoint: IC50 (nM)

[
  {
    "structure-as-smiles": "COC(=O)c1ccn(CC(=O)N2CCN(c3sc(C(F)(F)F)nc3-c3nc4ccccc4[nH]3)C[C@H]2C)n1",
    "measured": 2
  }
]

I: COc1cc2nc(-c3ncsc3N3CCN(C(=O)Cn4cnc5cccnc54)[C@H](C)C3)[nH]c2cc1OC
II: C[C@@H]1CN(c2sc(C(F)(F)F)nc2-c2nc3ccccc3[nH]2)CCN1C(=O)CN1CCc2[nH]ncc2C1
Of I and II , which shows the smaller IC50 value? Answer format: the label of the selected item.
I
(I: 5 nM, II: 21 nM)
